# System: SN12C renal
# protocol description: NCI-60 one-dose screen, 48 h (100 = growth as untreated, 0 = no growth, -100 = all killed)
# conditions: 10 µM unless noted
The panel holds about 83,000 compounds, 20% with a hit somewhere; the sample as a whole holds those more often.
Please provide measured growth for the entries that follow.
One number for each entry, in %.

O=C(NCOC(O)C(Cl)(Cl)Cl)NCOC(O)C(Cl)(Cl)Cl (stereo not given) : 97.8
C=C1C(=O)O[C@H]2[C@H]1CC/C(Cn1cc(CNCCc3c[nH]c4ccc(Cl)cc34)nn1)=C\CC[C@@]1(C)O[C@@H]21 : 58.6
COC(=O)CNC(=O)C(=O)c1c(O)c(O)c(C(C)C)c2cc(C)c(-c3c(C)cc4c(C(C)C)c(O)c(O)c(C(=O)C(=O)NCC(=O)OC)c4c3O)c(O)c12 : 32.9

Below is a list of molecules. For each, state its recorded growth.
1. CC(/C=N/NC(=O)c1cc(-c2ccco2)[nH]n1)=C\c1ccccc1
2. Nc1ccc(-c2cc3c(Nc4ccc(OCc5cccc(F)c5)c(Cl)c4)ncnc3s2)cc1
3. O=[N+]([O-])c1ccccc1C(O)Cc1ccc2ccccc2n1 (stereo not given)
4. CC(=O)Nc1cccc(C2=CC(c3ccc(C)cc3)n3ncnc3N2)c1 (stereo not given)

Response:
1: 95; 2: 48.4; 3: 95.2; 4: 101

Below is a list of molecules. For each, state its recorded growth.
1. Cc1nc(C)c(-c2nn3c(-c4cccc(F)c4)nnc3s2)s1
2. N#Cc1c(N)nc2c(nnn2-c2cccc(Br)c2)c1N
3. CCCCCCNC(=O)c1cc(NCc2cc(O)ccc2O)ccc1O

Response:
[97.6, 93.4, 56.3]

###

# Tested on: EKVX NSCLC
# protocol description: NCI-60 one-dose screen, 48 h
# conditions: 10 µM unless noted
Compounds without any hit were thinned out: in the full panel of roughly 83,000, 20% have a hit. The source made the active and inactive calls. Rule for the calls: active = growth percent below 10; inactive = the rest.
// classify into True (active), False (inactive)

C[C@@H]1C(=O)N(C[C@@H](Cc2ccccc2)NC(=O)OCc2ccccc2)[C@]1(Cc1ccccc1)C(=O)OCc1ccccc1 : False

Request: Hello, I am checking results. What call was entered for N#C/C=C(\c1ccc([N+](=O)[O-])cc1)n1nnc2cc(Cl)c(Cl)cc21 ?
Response: False

Request: Hello, I am checking results. What call was entered for Nc1ccn(C2OC(F)(CO)C(O)C2F)c(=O)n1 (centres undefined) ?
Response: False

Request: Hello, I am checking results. What call was entered for COc1ccc(-c2cn(-c3cccc(C(=O)/C=C/c4cc(OC)c(OC)c(OC)c4)c3)c(=O)[nH]2)cc1 ?
Response: True

Request: Hello, I am checking results. What call was entered for O=[N+]([O-])c1ccc(-c2cc3c(Nc4ccc(OCc5cccc(Cl)c5)c(Cl)c4)ncnc3s2)cc1 ?
Response: False

Request: Hello, I am checking results. What call was entered for O=[N+]([O-])c1ccc(-c2cc3c(Nc4ccc(Sc5nc6ccccc6s5)c(Cl)c4)ncnc3s2)cc1 ?
Response: False

Request: Hello, I am checking results. What call was entered for CN1CCC(=C2c3ccccc3C=Cc3ccccc32)CC1 ?
Response: False

Request: Hello, I am checking results. What call was entered for Cc1[nH]c(-c2nc3ccccc3[nH]2)c(C)c1C(=O)NNc1ccc(Cl)cc1 ?
Response: False

Request: Hello, I am checking results. What call was entered for Clc1ccc(/C=N\N=c2\scc(-c3ccc(Cl)cc3)n2/N=C/c2ccc(Cl)cc2)cc1 ?
Response: False
